B1: Membrane-associated guanylate kinase, WW and PDZ domain-containing protein 1, residues 352 to 401; numbered along this chain, Q96QZ7 (parent)
chain: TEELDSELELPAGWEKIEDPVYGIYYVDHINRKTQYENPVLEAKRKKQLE

variants of: B1; assay: abundance fitness (aPCA) (normalised: wild type 0, dead -1); higher = more abundant; growth selection in yeast, the domain comes from the species named; details: Homo sapiens
Would you mind sorting the entries by abundance fitness according to these classes? band A = under -0.3, band B = from -0.3 up to -0.1, band C = -0.1 and over

Look over these answered cases.
{"CHANGE": "D28C", "LABEL_VALUE": "band A"}
{"CHANGE": "I30D", "LABEL_VALUE": "band A"}
{"CHANGE": "Y26S", "LABEL_VALUE": "band A"}
{"CHANGE": "H29N", "LABEL_VALUE": "band C"}
{"CHANGE": "K46W", "LABEL_VALUE": "band A"}
{"CHANGE": "L4T", "LABEL_VALUE": "band C"}

Query block: Class label required: "E37G"
Result block: band B

Query block: Class label required: "E3Q"
Result block: band B

Query block: Class label required: "E18D"
Result block: band B

Query block: Class label required: "K16D"
Result block: band A

Query block: Class label required: "V21S"
Result block: band B

Query block: Class label required: "Y22A"
Result block: band C

Query block: Class label required: "E7D"
Result block: band C

Query block: Class label required: "P39K"
Result block: band A

Query block: Class label required: "E2W"
Result block: band C

Query block: Class label required: "L10A"
Result block: band A
